# target.of.assay: T1, human CTLA-4, full-length, expressed on transfected Expi293 cells (human, UniProt P16410 36-223)
# T1 construct: whole, on cells
# assay.protocol: flow cytometry, 100 nM, Expi293 cells with human CTLA-4
One threshold, 1 fold, splits the recorded MFI ratio to WT (ΔWT) values: lower ones are Criterion met, equal or higher ones are Criterion not met.

Would you please look over these solved cases?
variant ICOSL IgV-Fc fusion N52R/N57W/Q100K (Fc fusion) DTQEKEVRAMVGSDVELSCACPEGSRFDLNDVYVYWQTSESKTVVTYHIPQRSSLEWVDSRYRNRALMSPAGMLRGDFSLRLFNVTPQDEQKFHCLVLSKSLGFQEVLSVEVTLHVAANFSVGSGGGGSEPKSSDKTHTCPPCPAPEAEGAPSVFLFPPKPKDTLMISRTPEVTCVVVDVSHEDPEVKFNWYVDGVEVHNAKTKPREEQYNSTYRVVSVLTVLHQDWLNGKEYKCKVSNKALPAPIEKTISKAKGQPREPQVYTLPPSREEMTKNQVSLTCLVKGFYPSDIAVEWESNGQPENNYKTTPPVLDSDGSFFLYSKLTVDKSRWQQGNVFSCSVMHEALHNHYTQKSLSLSPG    Criterion not met
variant ICOSL IgV-Fc fusion N52P/N57S/Q100G (Fc fusion) DTQEKEVRAMVGSDVELSCACPEGSRFDLNDVYVYWQTSESKTVVTYHIPQPSSLESVDSRYRNRALMSPAGMLRGDFSLRLFNVTPQDEQKFHCLVLSGSLGFQEVLSVEVTLHVAANFSVGSGGGGSEPKSSDKTHTCPPCPAPEAEGAPSVFLFPPKPKDTLMISRTPEVTCVVVDVSHEDPEVKFNWYVDGVEVHNAKTKPREEQYNSTYRVVSVLTVLHQDWLNGKEYKCKVSNKALPAPIEKTISKAKGQPREPQVYTLPPSREEMTKNQVSLTCLVKGFYPSDIAVEWESNGQPENNYKTTPPVLDSDGSFFLYSKLTVDKSRWQQGNVFSCSVMHEALHNHYTQKSLSLSPG    Criterion met
variant ICOSL IgV-Fc fusion N52R/N57L/Q100S (Fc fusion) DTQEKEVRAMVGSDVELSCACPEGSRFDLNDVYVYWQTSESKTVVTYHIPQRSSLELVDSRYRNRALMSPAGMLRGDFSLRLFNVTPQDEQKFHCLVLSSSLGFQEVLSVEVTLHVAANFSVGSGGGGSEPKSSDKTHTCPPCPAPEAEGAPSVFLFPPKPKDTLMISRTPEVTCVVVDVSHEDPEVKFNWYVDGVEVHNAKTKPREEQYNSTYRVVSVLTVLHQDWLNGKEYKCKVSNKALPAPIEKTISKAKGQPREPQVYTLPPSREEMTKNQVSLTCLVKGFYPSDIAVEWESNGQPENNYKTTPPVLDSDGSFFLYSKLTVDKSRWQQGNVFSCSVMHEALHNHYTQKSLSLSPG    Criterion met
variant ICOSL IgV-Fc fusion N52R/N57L/Q100A (Fc fusion) DTQEKEVRAMVGSDVELSCACPEGSRFDLNDVYVYWQTSESKTVVTYHIPQRSSLELVDSRYRNRALMSPAGMLRGDFSLRLFNVTPQDEQKFHCLVLSASLGFQEVLSVEVTLHVAANFSVGSGGGGSEPKSSDKTHTCPPCPAPEAEGAPSVFLFPPKPKDTLMISRTPEVTCVVVDVSHEDPEVKFNWYVDGVEVHNAKTKPREEQYNSTYRVVSVLTVLHQDWLNGKEYKCKVSNKALPAPIEKTISKAKGQPREPQVYTLPPSREEMTKNQVSLTCLVKGFYPSDIAVEWESNGQPENNYKTTPPVLDSDGSFFLYSKLTVDKSRWQQGNVFSCSVMHEALHNHYTQKSLSLSPG    Criterion not met
variant ICOSL IgV-Fc fusion N52T/N57H/Q100A (Fc fusion) DTQEKEVRAMVGSDVELSCACPEGSRFDLNDVYVYWQTSESKTVVTYHIPQTSSLEHVDSRYRNRALMSPAGMLRGDFSLRLFNVTPQDEQKFHCLVLSASLGFQEVLSVEVTLHVAANFSVGSGGGGSEPKSSDKTHTCPPCPAPEAEGAPSVFLFPPKPKDTLMISRTPEVTCVVVDVSHEDPEVKFNWYVDGVEVHNAKTKPREEQYNSTYRVVSVLTVLHQDWLNGKEYKCKVSNKALPAPIEKTISKAKGQPREPQVYTLPPSREEMTKNQVSLTCLVKGFYPSDIAVEWESNGQPENNYKTTPPVLDSDGSFFLYSKLTVDKSRWQQGNVFSCSVMHEALHNHYTQKSLSLSPG    Criterion not met

(Q) Lab note: confirm whether the reported MFI ratio to WT (ΔWT) for this binder is below 1 fold, equality not counting. binder: variant ICOSL IgV-Fc fusion N52A/N57Y/Q100A (Fc fusion) DTQEKEVRAMVGSDVELSCACPEGSRFDLNDVYVYWQTSESKTVVTYHIPQASSLEYVDSRYRNRALMSPAGMLRGDFSLRLFNVTPQDEQKFHCLVLSASLGFQEVLSVEVTLHVAANFSVGSGGGGSEPKSSDKTHTCPPCPAPEAEGAPSVFLFPPKPKDTLMISRTPEVTCVVVDVSHEDPEVKFNWYVDGVEVHNAKTKPREEQYNSTYRVVSVLTVLHQDWLNGKEYKCKVSNKALPAPIEKTISKAKGQPREPQVYTLPPSREEMTKNQVSLTCLVKGFYPSDIAVEWESNGQPENNYKTTPPVLDSDGSFFLYSKLTVDKSRWQQGNVFSCSVMHEALHNHYTQKSLSLSPG
(A) Criterion met

(Q) Lab note: confirm whether the reported MFI ratio to WT (ΔWT) for this binder is below 1 fold, equality not counting. binder: variant ICOSL IgV-Fc fusion N52C/N57E/Q100S (Fc fusion) DTQEKEVRAMVGSDVELSCACPEGSRFDLNDVYVYWQTSESKTVVTYHIPQCSSLEEVDSRYRNRALMSPAGMLRGDFSLRLFNVTPQDEQKFHCLVLSSSLGFQEVLSVEVTLHVAANFSVGSGGGGSEPKSSDKTHTCPPCPAPEAEGAPSVFLFPPKPKDTLMISRTPEVTCVVVDVSHEDPEVKFNWYVDGVEVHNAKTKPREEQYNSTYRVVSVLTVLHQDWLNGKEYKCKVSNKALPAPIEKTISKAKGQPREPQVYTLPPSREEMTKNQVSLTCLVKGFYPSDIAVEWESNGQPENNYKTTPPVLDSDGSFFLYSKLTVDKSRWQQGNVFSCSVMHEALHNHYTQKSLSLSPG
(A) Criterion met
